experiment: Cell viability of murine macrophages (WST-1 mitochondrial respiration), in parallel with NO release; assay type: cell-based; conditions: mouse, pH 7.2, CBD 0.5 weight % in mixture with NeutraZen 0.05%; read-out: Cell viability (% as compared to the negative control)
Measured parameter: viability at 25 h, 0.5 weight % (%)
Answers are plain numbers, in %.

Value lookup for viability at 25 h, 0.5 weight %; key = C=C(C)[C@@H]1CCC(C)=C[C@H]1c1c(O)cc(CCCCC)cc1O 7.76

* * *

experiment: Cell viability of murine macrophages (WST-1 mitochondrial respiration), in parallel with NO release; format: cell-based; details: mouse, pH 7.2, CBD 0.05 weight % in mixture with NeutraZen 0.01%; read-out: Cell viability (% as compared to the negative control)
Measured parameter: viability at 25 h, 0.05 weight % (%)
Answers are plain numbers, in %.

Value lookup for viability at 25 h, 0.05 weight %; key = C=C(C)[C@@H]1CCC(C)=C[C@H]1c1c(O)cc(CCCCC)cc1O [CBD] 97.7

* * *

assay: Cell viability of murine macrophages (WST-1 mitochondrial respiration), in parallel with NO release; assay type: cell-based; conditions: mouse, pH 7.2, CBD 0.01 weight % in mixture with NeutraZen 0.1%; read-out: Cell viability (% as compared to the negative control)
Measured parameter: viability at 25 h, 0.01 weight % (%)
Give bare numbers, in %.

Value lookup for viability at 25 h, 0.01 weight %; key = C=C(C)[C@@H]1CCC(C)=C[C@H]1c1c(O)cc(CCCCC)cc1O 101

* * *

assay: Cell viability of murine macrophages (WST-1 mitochondrial respiration), in parallel with NO release; format: cell-based; conditions: mouse, pH 7.2, CBD 0.25 weight % in mixture with NeutraZen 0.025%; read-out: Cell viability (% as compared to the negative control)
Measured parameter: viability at 25 h, 0.25 weight % (%)
One number for each entry, in %.

Value lookup for viability at 25 h, 0.25 weight %; key = C=C(C)[C@@H]1CCC(C)=C[C@H]1c1c(O)cc(CCCCC)cc1O 88.5
